Tested system: T1, dimeric hIL-4R-hFc (human, UniProt P24394 26-232)
T1 construct: also called hIL-4R-Fc; not shown: human Fc (hFc)
T1 sequence: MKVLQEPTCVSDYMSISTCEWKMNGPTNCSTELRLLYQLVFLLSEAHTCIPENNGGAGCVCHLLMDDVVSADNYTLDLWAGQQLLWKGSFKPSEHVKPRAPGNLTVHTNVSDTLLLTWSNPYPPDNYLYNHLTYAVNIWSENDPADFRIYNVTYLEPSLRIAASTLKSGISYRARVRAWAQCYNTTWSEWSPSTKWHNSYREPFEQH
Experiment summary: SPR; reduction of hIL-4 (50 nM) binding to captured hIL-4R-hFc after antibody; competitor hIL-4
Give t when the value for % Inhibition (BIAcore) is at least 90%. Give f when it is less.

Take a look at these entries with their results.
VAB 10G8-19 (antibody, V domains shown, Apparently tested with mouse constant region (anti-mouse IgG capture/detection)) VH: QVQLVQSGAEVKKPGASVKVSCKASRYTFTSYDINWVRQATGQGLEWMGWMNPNSGNTGYAQKFQGRVTMTRNTSTSTAYMELSSLRSEDTAVYYCARVRRFFDYWGQGTLVTVSS VL: DIQLTQSPSFLSASVGDRVTITCWASQGIISYLAWYQQKPGKAPKLLIYAASTLHSGVPSRFSGSGSGTEFTLTISSLQPEDFATYYCHQLKSYPITFGQGTRLEIK :: f
VAK12B11-9 (antibody, V domains shown, Apparently tested with mouse constant region (anti-mouse IgG capture/detection)) VH: QVQLVESGGGVVQPGRSLRLSCAASGFTFSSYAMYWVRQAPGKGLEWVAVISYDGSNKYYTDSVKGRFTVSRDNSKNTLFLQMNSLRAEDTALYYCAKESSSYGLDVWGQGTTVTVSS VL: DIQMTQSPSTLSASVGDRVAITCRASQSISNWLAWYQQKPGKAPKLLISKASSLKSGVPSRFSGSGSGTEFTLTISSLQPDDFAAYYCQQYNSYSYTFGQGTKLEIK :: t
VAK10G12-5 (antibody, V domains shown, Apparently tested with mouse constant region (anti-mouse IgG capture/detection)) VH: QVQLVESGGGVVQPGGSLRLSCAASGFTFSSYGMHWVRQAPGRGLEWVAVLSYDGSKEFYADSVKVRFTVSRDNSKNTLYLQMSSLRVEDTAIYFCAKEGRTGNWFDPWGQGTLVAVSS VL: DIQMTQSPSSLSASVGDRVTITCRASQAINNFLAWFQQKPGKTPKSLIFATSSLQSGVPSRFSGSESGTDFTLTISSLQPEDFATYYCQQYNSHPWTFGQGTKVEIK :: t

Please look at the following binder next.
Please indicate if the recorded % Inhibition (BIAcore) for VAB 1H1-2 (antibody, V domains shown, Apparently tested with mouse constant region (anti-mouse IgG capture/detection)) VH: QVQLVQSGAEVKKPGASVKVSCKASGYTFTSYGISWVRQAPGQGLEWMGWISVYNGNTNYAQKLQGRVTMTTDTSTSTAYMDLRSLRSDDAAVYYCARGSGYDFDYWGQGTLVTVSS VL: AIQMTQSPSSLSASVGDRVTITCRASQGIRNALGWYQQKPGKAPKLLIYAASSLQSGVPSRFSGSGSGTDFTLTISSLQSEDFATYYCLQDYNYPYTFGQGTKLEIK meets or exceeds 90%.
f
